# measurement target: hFXR (Homo sapiens (Human), UniProt Q96RI1)
# Sequence (Q96RI1 whole entry): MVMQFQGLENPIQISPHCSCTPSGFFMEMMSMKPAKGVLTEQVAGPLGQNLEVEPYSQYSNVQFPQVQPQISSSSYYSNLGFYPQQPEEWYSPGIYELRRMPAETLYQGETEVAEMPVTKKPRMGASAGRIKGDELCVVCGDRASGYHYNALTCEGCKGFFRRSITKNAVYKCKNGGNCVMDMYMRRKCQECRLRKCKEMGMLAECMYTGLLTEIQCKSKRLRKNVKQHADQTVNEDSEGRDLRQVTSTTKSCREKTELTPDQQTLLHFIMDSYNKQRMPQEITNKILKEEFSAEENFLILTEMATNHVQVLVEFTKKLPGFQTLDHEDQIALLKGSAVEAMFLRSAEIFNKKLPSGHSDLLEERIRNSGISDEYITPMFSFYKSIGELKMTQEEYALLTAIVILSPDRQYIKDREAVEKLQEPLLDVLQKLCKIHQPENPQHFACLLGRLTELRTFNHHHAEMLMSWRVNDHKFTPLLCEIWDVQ
# Sequence (P19793 whole entry partner): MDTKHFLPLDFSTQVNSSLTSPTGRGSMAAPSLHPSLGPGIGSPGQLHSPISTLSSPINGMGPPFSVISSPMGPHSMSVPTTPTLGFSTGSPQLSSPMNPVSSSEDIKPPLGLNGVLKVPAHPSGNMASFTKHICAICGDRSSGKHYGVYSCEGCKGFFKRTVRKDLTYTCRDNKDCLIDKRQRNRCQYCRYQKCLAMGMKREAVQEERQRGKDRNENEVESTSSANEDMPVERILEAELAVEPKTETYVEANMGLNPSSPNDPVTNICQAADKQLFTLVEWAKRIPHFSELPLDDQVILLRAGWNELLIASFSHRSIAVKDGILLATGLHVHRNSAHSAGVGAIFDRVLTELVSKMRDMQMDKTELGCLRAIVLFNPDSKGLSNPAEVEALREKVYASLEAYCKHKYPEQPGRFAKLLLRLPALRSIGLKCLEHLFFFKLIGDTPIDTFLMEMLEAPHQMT
# measurement notes: In Vitro FXR Assay (TK), luciferase reporter in transfected CV-1 cells
# experimental conditions: TK-ECRE-luc reporter, hFXR/hRXR, 18 hrs, maximum efficacy <25% of Fexaramine control classified as '+'
pEC50: −log10 of the molar value.
Let's look at some compounds and their measured pEC50.

smiles text	observed result
COC(=O)/C=C/c1ccnc(N(C[C@H]2CC[C@H](c3ccc(OC)c(C)c3)CC2)C(=O)C2CCCCC2)c1	≥ 6.00

input: Respond only with pEC50 recorded for `COc1ccc(-c2ccc(CN(C(=O)CC(C)(C)C)c3nccc4cc(C(=O)OC(C)C)ccc34)cc2)cc1C#N`
output: ≥ 6.00

input: Respond only with pEC50 recorded for `COC(=O)c1ccc2c(N(Cc3ccc(-c4ccc(OC)c(C)c4)cc3)C(=O)CC3CCCCC3)nccc2c1`
output: 5.00 to 6.00

input: Respond only with pEC50 recorded for `COC(=O)c1ccc2c(N(Cc3ccc(-c4ccc(C(F)F)cc4)cc3)C(=O)CC(C)(C)C)nccc2c1`
output: ≥ 6.00

----------
# measurement target: hFXR (Homo sapiens (Human), UniProt Q96RI1)
# measurement notes: In Vitro FXR Assay (TK), luciferase reporter in transfected CV-1 cells
# experimental conditions: TK-ECRE-luc reporter, hFXR/hRXR, 18 hrs, maximum efficacy <25% of Fexaramine control classified as '+'
# Procedure: CV-1 cells were seeded at a density of 2,000,000 cells in a T175 flask with DMEM+10% charcoal double-stripped FBS and incubated at 37° C. in 5% CO2 for 18 h (O/N). After 18 h of incubation, the medium in the T175 flask was changed with fresh DMEM+10% charcoal super-stripped serum. […] Compounds were serially diluted in DMSO and added to transfected CV-1 cells. […] The next day cells were lysed and examined for luminescence.
assay metric: EC50

smiles text	EC50
CCCC(=O)N(Cc1ccc(-c2ccc(OC)c(C)c2)cc1)c1nccc2cc(C(=O)OC)ccc12	≤ 1000 nM
COC(=O)c1ccc2c(N(Cc3ccc(-c4ccc(C)c(C#N)c4)cc3)C(=O)CC(C)(C)C)nccc2c1	≤ 1000 nM
COC(=O)c1ccc2c(N(Cc3ccc(-c4ccc(OC)c(C)c4)cc3)C(=O)Cc3ccccc3)nccc2c1	≥ 10000 nM
COc1ccc(-c2ccc(CN(C(=O)CC(C)(C)C)c3nccc4cc(C(=O)O)ccc34)cc2)cc1C	≥ 10000 nM
COC(=O)c1ccc2c(N(Cc3ccc(-c4ccc(OC)c(Cl)c4)cc3)C(=O)[C@H]3CC[C@H](O)CC3)nccc2c1	≤ 1000 nM

input: Respond only with EC50 recorded for `COC(=O)c1ccc2c(N(Cc3ccc(-c4ccc5c(ccn5C)c4)cc3)C(=O)CC(C)(C)C)nccc2c1`
output: ≤ 1000 nM

input: Respond only with EC50 recorded for `COc1ccc(-c2ccc(CN(C(=O)CC(C)(C)C)c3nccc4cc(/C=C/C(=O)O)ccc34)cc2)cc1C`
output: 1000 to 10000 nM

----------
Let's look at some compounds and their measured EC50.
# measurement target: hFXR (Homo sapiens (Human))
# measurement notes: In Vitro FXR Assay (TK), luciferase reporter in transfected CV-1 cells
# experimental conditions: TK-ECRE-luc reporter, hFXR/hRXR, 18 hrs, maximum efficacy <25% of Fexaramine control classified as '+'

Worked set:
smiles text	EC50
CCCCC(=O)N(Cc1ccc(-c2ccc(OC)c(C)c2)cc1)c1nccc2cc(C(=O)OC)ccc12	≤ 1000 nM
COC(=O)/C=C/c1cccc(N(Cc2ccc(-c3ccc(N(C)C)cc3)cc2)C(=O)C2CCCCC2)n1	≥ 10000 nM
COC(=O)c1ccc2c(N(Cc3ccc(-c4ccc(F)c(OC)c4)cc3)C(=O)CC(C)(C)C)nccc2c1	1000 to 10000 nM
COC(=O)c1ccc2c(N(Cc3ccc(-c4cnc(OC)c(C)c4)cc3)C(=O)CC(C)(C)C)nccc2c1	≤ 1000 nM
COC(=O)c1ccc2c(N(Cc3ccc(-c4ccc(N(C)C)cc4)cc3)C(=O)C3CCCCC3)cccc2c1	1000 to 10000 nM
COC(=O)c1ccc2c(N(Cc3ccc(-c4ccc(OC)c(C)c4)cc3)C(=O)c3ccccc3)nccc2c1	≤ 1000 nM
COC(=O)c1cc2cccc(N(Cc3ccc(-c4ccc(N(C)C)cc4)cc3)C(=O)C3CCCCC3)c2s1	1000 to 10000 nM
COC(=O)/C=C/c1ccnc(N(Cc2ccc(-c3ccc(N(C)C)nc3)cc2)C(=O)C2CCOCC2)c1	1000 to 10000 nM
COC(=O)c1ccc2c(N(Cc3ccc(-c4ccc(OCCO)cc4)cc3)C(=O)CC(C)(C)C)nccc2c1	1000 to 10000 nM
COC(=O)c1ccc2c(N(Cc3ccc(-c4ccc(C(F)(F)F)nc4)cc3)C(=O)CC(C)(C)C)nccc2c1	1000 to 10000 nM

input: Look up and report measured EC50 (hFXR (Homo sapiens (Human))) for the following compound: `COC(=O)c1ccc2c(N(Cc3ccc(-c4ccc(OC)c(C)c4)cc3)C(=O)CC(C)(C)C)nccc2c1`
output: ≤ 1000 nM

----------
# measurement target: hFXR (Homo sapiens (Human))
# measurement notes: In Vitro FXR Assay (TK), luciferase reporter in transfected CV-1 cells
# experimental conditions: TK-ECRE-luc reporter, hFXR/hRXR, 18 hrs, maximum efficacy <25% of Fexaramine control classified as '+'
Let's look at some compounds and their measured EC50.

compound	assay metric	observed result
COC(=O)c1ccc2c(N(Cc3ccc(-c4ccc(OC)c(C)c4)cc3)C(=O)CC3CC3)nccc2c1 [Compound 80]	EC50	≤ 1000 nM
COC(=O)/C=C/c1cc(N(Cc2ccc(-c3ccc(N(C)C)cc3)cc2)C(=O)C2CCCCC2)ccn1 [Compound 3]	EC50	1000 to 10000 nM

Next, consider the following compound.
input: Respond only with EC50 recorded for COC(=O)c1ccc2c(N(Cc3ccc(-c4ccc(OC)c(C)c4)cc3)C(=O)CC3COC3)nccc2c1 [Compound 83]
output: 1000 to 10000 nM
